Ref: paper PMC8119466

target: recombinant PRL-1 (Homo sapiens); construct: 6xHis (N, cleaved yes); made in house; host or cells: E. coli One Shot BL21 Star; assay: In vitro phosphatase assay (DiFMUP hydrolysis), PRL-1; type: biochemical; settings: FDA-approved drug screen; compared to DMSO; further: test concentration or dose not given here
Sequence (Q93096 whole entry): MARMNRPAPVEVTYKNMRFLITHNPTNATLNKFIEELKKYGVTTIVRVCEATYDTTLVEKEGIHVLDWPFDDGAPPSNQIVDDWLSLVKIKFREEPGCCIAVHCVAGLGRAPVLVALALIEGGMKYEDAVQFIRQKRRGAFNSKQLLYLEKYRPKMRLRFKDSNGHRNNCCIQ
assay endpoint: % Phosphatase Activity (compared to DMSO) PRL-1 (%)

molecule	obs value
O=C(c1ccccc1)c1ccc2n1CCC2C(=O)O (stereo not drawn) [Ketorolac]	98
CC(C(=O)O)c1ccc(CC2CCCC2=O)cc1 (stereo not drawn) [Loxoprofen]	109
COc1ccc(CN=c2[nH]c(N3CCC[C@H]3CO)ncc2C(=O)NCc2ncccn2)cc1Cl [Avanafil]	98
